- target of assay: human TRPM8 (Homo sapiens)
- Construct: expressed in transfected cells; host or cells: Chinese hamster ovary (CHO) cells, T-REx tetracycline-inducible system, co-transfected with aequorin
- Sequence (Q7Z2W7 whole entry): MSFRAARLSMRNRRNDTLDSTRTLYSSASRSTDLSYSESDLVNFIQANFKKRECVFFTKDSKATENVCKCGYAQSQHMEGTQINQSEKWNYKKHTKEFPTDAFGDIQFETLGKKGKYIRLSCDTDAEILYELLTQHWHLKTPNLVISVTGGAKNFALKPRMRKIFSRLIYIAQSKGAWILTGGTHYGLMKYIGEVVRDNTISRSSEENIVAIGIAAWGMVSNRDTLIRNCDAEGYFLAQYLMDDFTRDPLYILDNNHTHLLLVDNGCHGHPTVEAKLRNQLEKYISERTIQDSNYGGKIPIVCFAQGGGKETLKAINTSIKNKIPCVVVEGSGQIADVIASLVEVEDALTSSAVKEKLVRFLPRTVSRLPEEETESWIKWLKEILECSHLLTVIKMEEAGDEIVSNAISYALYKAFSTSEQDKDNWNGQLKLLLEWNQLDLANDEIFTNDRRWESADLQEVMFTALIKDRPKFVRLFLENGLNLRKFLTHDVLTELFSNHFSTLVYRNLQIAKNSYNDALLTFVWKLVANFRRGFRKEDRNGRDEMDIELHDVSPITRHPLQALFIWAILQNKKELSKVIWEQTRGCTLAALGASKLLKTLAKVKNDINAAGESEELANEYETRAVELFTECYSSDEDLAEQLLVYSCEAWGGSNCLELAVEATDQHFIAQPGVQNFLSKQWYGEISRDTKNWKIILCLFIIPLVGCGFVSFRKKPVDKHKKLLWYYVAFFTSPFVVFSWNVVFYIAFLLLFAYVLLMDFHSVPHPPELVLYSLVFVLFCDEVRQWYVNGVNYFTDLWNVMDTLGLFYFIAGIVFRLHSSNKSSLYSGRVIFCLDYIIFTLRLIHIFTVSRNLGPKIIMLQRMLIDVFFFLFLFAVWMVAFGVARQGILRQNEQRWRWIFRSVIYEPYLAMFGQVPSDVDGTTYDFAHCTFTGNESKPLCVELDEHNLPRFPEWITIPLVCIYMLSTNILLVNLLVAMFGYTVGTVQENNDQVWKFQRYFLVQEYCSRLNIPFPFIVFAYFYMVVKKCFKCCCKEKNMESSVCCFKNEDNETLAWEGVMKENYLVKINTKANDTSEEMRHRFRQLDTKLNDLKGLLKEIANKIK
- assay comment: Luminescence readout assay for measuring intracellular calcium, icilin activation
- Format: cell-based
- condition notes: CHO cells expressing human TRPM8, aequorin luminescence, 1 μM icilin activation; read-out: hTRPM8 IC50
pIC50: −log10 of the molar value.
property: pIC50

{"compound": "Cc1cc([C@H](NC(=O)c2ccc(=O)[nH]c2)c2ncccc2F)ccc1F [Example 338]", "target of assay": "human TRPM8 (Homo sapiens)", "value reported": 6.58}
{"compound": "O=C(N[C@@H](c1cc(F)cc(F)c1)c1ncccc1F)c1ccc(=O)[nH]c1 [Example 329]", "target of assay": "human TRPM8 (Homo sapiens)", "value reported": 6.08}
{"compound": "Cn1cc(C(=O)N[C@@H](c2ccc(C(F)(F)F)cc2)c2ncccc2Cl)ccc1=O [Example 249, 2,2,2-trifluoroacetate]", "target of assay": "human TRPM8 (Homo sapiens)", "value reported": 7.88}
{"compound": "O=C(N[C@@H](c1ccc(C(F)(F)F)cc1)c1ncccc1C(F)(F)F)c1ccoc1 [Example 199]", "target of assay": "human TRPM8 (Homo sapiens)", "value reported": 7.11}
{"compound": "O=C(N[C@@H](c1ccc(C(F)(F)F)cc1)c1ncccc1C(F)(F)F)c1ccc(=O)[nH]n1 [Example 150]", "target of assay": "human TRPM8 (Homo sapiens)", "value reported": 6.75}
{"compound": "O=C(N[C@@H](c1ccc(OC(F)(F)F)cc1)c1ncccc1F)c1cc2n(n1)CCCO2 [Example 356]", "target of assay": "human TRPM8 (Homo sapiens)", "value reported": 7.11}
{"compound": "CS(=O)(=O)Nc1ccc(C(=O)N[C@@H](c2ccc(C(F)(F)F)cc2)c2ncccc2F)cc1 [Example 213]", "target of assay": "human TRPM8 (Homo sapiens)", "value reported": 7.37}
{"compound": "O=C(N[C@@H](c1ccc(Cl)c(Cl)c1)c1ncccc1C(F)(F)F)c1ccc(=O)[nH]c1 [Example 3]", "target of assay": "human TRPM8 (Homo sapiens)", "value reported": 7.75}
{"compound": "COc1cnccc1C(=O)N[C@@H](c1ccc(C(F)(F)F)cc1)c1ncccc1C(F)(F)F [Example 48]", "target of assay": "human TRPM8 (Homo sapiens)", "value reported": 7.67}
{"compound": "O=C1CCCC(C(=O)N[C@@H](c2ccc(C(F)(F)F)cc2)c2ncccc2C(F)(F)F)C1 (stereo partly shown) [Example 223]", "target of assay": "human TRPM8 (Homo sapiens)", "value reported": 6.22}
{"compound": "O=C(N[C@@H](c1ccc2ncccc2c1)c1ncccc1C(F)(F)F)c1ccc2cccnc2c1 [Example 22]", "target of assay": "human TRPM8 (Homo sapiens)", "value reported": 6.38}
{"compound": "O=C(N[C@@H](C#Cc1ccccc1)c1ncccc1C(F)(F)F)c1ccc2cccnc2c1 [Example 261]", "target of assay": "human TRPM8 (Homo sapiens)", "value reported": 6.43}
{"compound": "O=C1Cc2ccc(C(=O)N[C@@H](c3ccc(OC(F)(F)F)cc3)c3ncccc3F)cc2N1 [Example 90]", "target of assay": "human TRPM8 (Homo sapiens)", "value reported": 8.21}
{"compound": "Cn1cc(C(=O)N[C@@H](c2ccc(OC(F)(F)F)c(F)c2)c2ccccc2F)ccc1=O [Example 296]", "target of assay": "human TRPM8 (Homo sapiens)", "value reported": 7.64}
{"compound": "Cn1cc(C(=O)N[C@@H](c2ccc(OC(F)(F)F)c(F)c2)c2ccccn2)ccc1=O [Example 294]", "target of assay": "human TRPM8 (Homo sapiens)", "value reported": 7.84}
{"compound": "O=C(N[C@@H](c1ccc(OC(F)(F)F)c(F)c1)c1ccccc1F)c1ccc(=O)[nH]c1 [Example 295]", "target of assay": "human TRPM8 (Homo sapiens)", "value reported": 7.74}
